- Tested on: SK-MEL-5 melanoma
- ASSAY OVERVIEW: NCI-60 one-dose screen, 48 h (100 = growth as untreated, 0 = no growth, -100 = all killed)
- RUN CONDITIONS: 10 µM unless noted
Compounds without any hit were thinned out: in the full panel of roughly 83,000, 20% have a hit.
MEASURE: growth (%)
Report the figure in % without appending any unit label.

{"SMILES DATA": "COCCn1cc(-c2csc(-c3c[nH]c4ccc(F)cc34)n2)c2cccnc21", "growth (%)": 1.53}
{"SMILES DATA": "Cn1c(=O)c2[nH]c(SC/C(=N/O)c3ccc(Br)cc3)nc2n(C)c1=O", "growth (%)": 33.4}
{"SMILES DATA": "CC(C)(C)CC(C)(C)Nc1c(-c2c(O)c3ccccc3oc2=O)nc2sc3ccccc3n12", "growth (%)": 42}

Could you now consider this next molecule?
Please give the measured growth for this molecule: Fc1ccc(/C=C/[C@@H]2C[C@@H](F)CCO2)cc1 98
